Tested on: WIL-2NS
Assay: Antiproliferative assay (MTT)
Type: cell-based, human
Details: concentration reducing cell proliferation by 50%, 96 h, mean of three determinations
endpointName: CC50 (µM)
Numeric only. Scale: µM

See these solved cases before continuing.
* O=[N+]([O-])c1cc(NC(=S)Nc2ccc(I)cc2)ccc1Cl | 7
* O=[N+]([O-])c1cc(NC(=S)Nc2ccc(F)cc2)ccc1Cl | 11
* N#Cc1ccc(NC(=S)Nc2ccc(Cl)c([N+](=O)[O-])c2)cc1 | 10
* CC[C@@]1(O)C(=O)OCc2c1cc1n(c2=O)Cc2cc3ccccc3nc2-1 [Camptotecin, reference compound] | 0.005
* Cc1ccc(Cl)cc1NC(=S)Nc1ccc(Cl)c([N+](=O)[O-])c1 | 10
* O=[N+]([O-])c1cc(NC(=S)Nc2ccc(Cl)c(Cl)c2)ccc1Cl | 9.9
* O=[N+]([O-])c1cc(NC(=S)Nc2ccccc2Cl)ccc1Cl | 14
* O=[N+]([O-])c1cc(NC(=S)Nc2ccc(Br)cc2)ccc1Cl | 7
* O=[N+]([O-])c1cc(NC(=S)Nc2ccc(F)c(Cl)c2)ccc1Cl | 7
* Cc1ccc(NC(=S)Nc2ccc(Cl)c([N+](=O)[O-])c2)cc1Cl | 7.6

Now examine the next entry.
Short answer please: CC50, WIL-2NS, entry O=[N+]([O-])c1cc(NC(=S)Nc2ccccc2Br)ccc1Cl
30

* * *

Each entry below carries its reported log10(CC50).
Test system: CCRF-CEM
Assay: Antiproliferative assay (MTT)
Format: cell-based, human
Conditions: concentration reducing cell proliferation by 50%, 96 h, mean of three determinations
In our notation, the value equals log10 of CC50 in µM.

Observe how each entry below is paired with its result.
- CC[C@@]1(O)C(=O)OCc2c1cc1n(c2=O)Cc2cc3ccccc3nc2-1 [Camptotecin, reference compound]: -2.52
- O=[N+]([O-])c1cc(NC(=S)Nc2ccc(Br)cc2)ccc1Cl: 0.78
- O=[N+]([O-])c1cc(NC(=S)Nc2ccccc2Br)ccc1Cl: 1.34
- O=[N+]([O-])c1cc(NC(=S)Nc2ccccc2Cl)ccc1Cl: 1.11
- N#Cc1ccc(NC(=S)Nc2ccc(Cl)c([N+](=O)[O-])c2)cc1: 0.96

Next up:
Please tell me: log10(CC50) of O=[N+]([O-])c1cc(NC(=S)Nc2ccc(Cl)c(Cl)c2)ccc1Cl , system CCRF-CEM?
0.90

* * *

Tested on: MT-4 cells
Experiment: Cytotoxicity against mock-infected MT-4 cells (MTT)
Assay type: cell-based, human
Conditions: concentration reducing viability of mock-infected MT-4 cells by 50%, 96 h
endpointName: CC50 (µM)
Field: numeric (µM). Do not append units.

- O=[N+]([O-])c1ccc(NC(=S)Nc2ccc(Cl)c([N+](=O)[O-])c2)cc1: 7
- O=[N+]([O-])c1cc(NC(=S)Nc2ccc(I)cc2)ccc1Cl: 7.8
- O=[N+]([O-])c1cc(NC(=S)Nc2ccc(F)cc2)ccc1Cl: 7
- O=[N+]([O-])c1cc(NC(=S)Nc2ccc(Cl)c(Cl)c2)ccc1Cl: 7.9
- Cc1ccc(NC(=S)Nc2ccc(Cl)c([N+](=O)[O-])c2)cc1Cl: 8
- O=[N+]([O-])c1cc(NC(=S)Nc2cccc(C(F)(F)F)c2)ccc1Cl: 8

Missing value: CC50, MT-4 cells, entry CC(NC(=S)Nc1ccc(Cl)c([N+](=O)[O-])c1)c1ccccc1 (stereo not drawn) . Fill in?
16.7

Return CC50 measured with MT-4 cells given this molecule: O=[N+]([O-])c1cc(NC(=S)Nc2ccccc2Cl)ccc1Cl
8.8

Report CC50 for N#Cc1ccc(NC(=S)Nc2ccc(Cl)c([N+](=O)[O-])c2)cc1 tested on MT-4 cells.
8.2

Item: O=[N+]([O-])c1cc(NC(=S)Nc2ccc(F)c(Cl)c2)ccc1Cl Test system: MT-4 cells Read-out: CC50 Value: ?
7.3

Field: CC50 (MT-4 cells). Entry: O=[N+]([O-])c1cc(NC(=S)Nc2cccc(Cl)c2)ccc1Cl
7

Query the reported CC50 for MT-4 cells; item: O=[N+]([O-])c1cc(NC(=S)Nc2ccccc2Br)ccc1Cl
9.6
